reportedMetric: melting point

Below, 10 compounds whose answers are already recorded.
NC(=O)c1cc2ccccc2[nH]1 :: 231 to 232 °C
OC(CCCN1CC=C(c2ncco2)CC1)c1ccc(F)cc1 (stereo unspecified) :: 100 to 103 °C
CC(=O)C1=C(O)CC(C)OC1=O (stereo unspecified) :: 96 to 98 °C
COc1ccc(C(=O)c2cccc(OCc3nc(-c4ccccc4)oc3C)c2)c(O)c1 :: 117 to 118 °C
O=C(O)CCCCc1cc2nc(Cl)ccc2n1S(=O)(=O)c1ccccc1 :: 113 °C
CN(C)C(=O)c1nc(Cl)c(Cl)[nH]1 :: 245 °C
N#CNC(=S)Nc1ccccc1 :: > 250 °C
COc1ccccc1-c1cccc(-n2cnc3cc(C4=NCCN4)ccc32)c1 :: 221 to 224 °C
COc1ccccc1CN[C@H]1CCCN[C@H]1c1ccc2ccccc2c1 (relative stereo) :: > 250 °C
O=C1CCN(Cc2ccccc2O)CC1C(c1ccccc1)c1ccccc1 (stereo unspecified) :: 109 to 110 °C

Input line: Given the compound C=C(C(=O)c1cc2c(c(C)c1C)OC(C(=O)O)C2)C(C)C (stereo unspecified) , what is its reported melting point?
Output line: 97 °C
